Endpoint: log10 of Kd. System: Carbonic anhydrase 2 (Bos taurus). Items follow.
Sequence (P00921 whole entry): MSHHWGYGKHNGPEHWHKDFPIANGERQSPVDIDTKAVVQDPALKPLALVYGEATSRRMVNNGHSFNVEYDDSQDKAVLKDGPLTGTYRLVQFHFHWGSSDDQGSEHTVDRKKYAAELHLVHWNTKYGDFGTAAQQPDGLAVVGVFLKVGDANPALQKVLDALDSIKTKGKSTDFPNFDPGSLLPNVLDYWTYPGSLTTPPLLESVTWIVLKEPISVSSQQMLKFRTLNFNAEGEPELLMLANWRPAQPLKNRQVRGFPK
Form field - Quantity: Kd; Unit: µM; Scale: log10

Worked cases, answers included:
| Compound | log10 of Kd |
| --- | --- |
| CCCn1c(=O)[nH]c2cc(S(N)(=O)=O)ccc21 | -0.71 |
| Cc1ccccc1S(N)(=O)=O [2-methylbenzene-1-sulfonamide] | 0.34 |
| Nc1nc2ccc(S(N)(=O)=O)cc2s1 [2-amino-1,3-benzothiazole-6-sulfonamide] | -0.42 |
| Cn1cnc(S(N)(=O)=O)c1 [1-methyl-1H-imidazole-4-sulfonamide] | 1.55 |
| Nc1ccc(S(N)(=O)=O)cn1 [6-aminopyridine-3-sulfonamide] | 1.03 |

Challenge: Checklist item: log10 of Kd tested on Carbonic anhydrase 2 (Bos taurus), entry NS(=O)(=O)c1ccc(F)cc1F [2,4-difluorobenzene-1-sulfonamide] , value?
Response given: -0.40

Challenge: And what about the compound NS(=O)(=O)c1ccc2c(c1)CCN2 [2,3-dihydro-1H-indole-5-sulfonamide] ?
Response given: 0.49

Challenge: How about this compound: "O=C1NNS(=O)(=O)c2ccccc21"
Response given: 1.59

Challenge: Repeat with NS(=O)(=O)c1cc(Cl)cc(Cl)c1 [3,5-dichlorobenzene-1-sulfonamide]
Response given: -0.54
